- target: T1, IFN-αF (human, UniProt P01568 24-189)
- T1 construct: Recombinant, HEK293; also called IFN-α21
- T1 chain: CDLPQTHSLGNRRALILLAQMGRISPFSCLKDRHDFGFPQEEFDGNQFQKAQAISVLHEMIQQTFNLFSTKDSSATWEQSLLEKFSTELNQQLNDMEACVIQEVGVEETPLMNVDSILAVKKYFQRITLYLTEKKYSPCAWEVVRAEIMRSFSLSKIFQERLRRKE
- test protocol: ProteOn SPR, cell supernatant;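 note: each binding measurement used just a single antigen concentration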
pKd: −log10 of the molar value.
attribute measured: pKd

1) IFWM3371 (antibody, IgG1, V domains shown, mAb; IgG1/kappa said of the parent and of selected mAbs; also called IFWB3106) VH: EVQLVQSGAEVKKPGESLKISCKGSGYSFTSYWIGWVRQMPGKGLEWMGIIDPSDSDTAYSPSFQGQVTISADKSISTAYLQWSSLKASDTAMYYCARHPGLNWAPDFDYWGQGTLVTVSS VL: DIQMTQSPSSLSASVGDRVTITCRASQSIANTNLNWYQQKPGKAPKLLIHWASSLQSGVPSRFSGSGSGTDFTLTISSLQPEDFATYYCQQWYDNPLTFGQGTKVEIK
10.30
2) IFWM3386 (antibody, IgG1, V domains shown, mAb; IgG1/kappa said of the parent and of selected mAbs; also called IFWB3121) VH: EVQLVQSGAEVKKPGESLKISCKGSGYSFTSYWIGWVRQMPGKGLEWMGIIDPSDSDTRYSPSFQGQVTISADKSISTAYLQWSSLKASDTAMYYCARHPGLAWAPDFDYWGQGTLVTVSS VL: DIQMTQSPSSLSASVGDRVTITCRASQSIAEFLNWYQQKPGKAPKLLIYFASSLQSGVPSRFSGSGSGTDFTLTISSLQPEDFATYYCQQSIDFPLTFGQGTKVEIK
10.54
3) IFWM3418 (antibody, IgG1, V domains shown, mAb; IgG1/kappa said of the parent and of selected mAbs; also called IFWB3153) VH: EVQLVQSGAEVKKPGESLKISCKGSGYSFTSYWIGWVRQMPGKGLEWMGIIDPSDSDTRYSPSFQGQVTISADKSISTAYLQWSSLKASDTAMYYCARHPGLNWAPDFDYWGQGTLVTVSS VL: DIQMTQSPSSLSASVGDRVTITCRASQSIAGFLNWYQQKPGKAPKLLIYYASSLQSGVPSRFSGSGSGTDFTLTISSLQPEDFATYYCQQSYSIPITFGQGTKVEIK
9.64
